# key: entry, value: drug sensitivity score
Tested on: HCC1599
Experiment: drug sensitivity score (DSS), CellTiter-Blue viability (DSS (AUC-based score)); higher = stronger viability inhibition; extreme values may be limits of the assay
Settings: incubation time: 72 h
Note: the reply should be a number with no unit written.

COMPOUND	METRIC NAME	QUANTITATIVE READOUT
COc1cc(Nc2c(C#N)cnc3cc(OCCCN4CCN(C)CC4)c(OC)cc23)c(Cl)cc1Cl	drug sensitivity score	3.68
CC(C)C[C@H](NC(=O)[C@@H](COC(C)(C)C)NC(=O)[C@H](Cc1ccc(O)cc1)NC(=O)[C@H](CO)NC(=O)[C@H](Cc1c[nH]c2ccccc12)NC(=O)[C@H](Cc1cnc[nH]1)NC(=O)[C@@H]1CCC(=O)N1)C(=O)N[C@@H](CCCNC(=N)N)C(=O)N1CCC[C@H]1C(=O)NNC(N)=O	drug sensitivity score	0
CN(Cc1cnc2nc(N)nc(N)c2n1)c1ccc(C(=O)N[C@@H](CCC(=O)O)C(=O)O)cc1 [Methotrexate]	drug sensitivity score	0
Cc1cc(Nc2nc(N[C@@H](C)c3ncc(F)cn3)ncc2Cl)[nH]n1	drug sensitivity score	1.53

The record that follows has no drug sensitivity score shown yet.
Need drug sensitivity score of CC(=O)[C@]1(O)Cc2c(O)c3c(c(O)c2[C@@H](O[C@H]2C[C@H](N)[C@H](O)[C@H](C)O2)C1)C(=O)c1ccccc1C3=O , thanks.
0.917

---

System: MDA-MB-436
Assay: normalised viability (% of control), CellTiter-Blue; higher = more viable cells (about 100 = DMSO control)
Details: 10000 nM; incubation time: 72 h
METRIC NAME: normalised viability

> print(dat)
                                   molecule  result
1  COc1ccc(S(=O)(=O)Nc2cccnc2Nc2ccc(O)cc2)cc1   21.4%
2  CC(C)(C)NC(=O)[C@H]1CC[C@H]2[C@@H]3CC[C@H]4NC(=O)C=C[C@]4(C)[C@H]3CC[C@]12C [Finasteride]   96.3%
3  COc1cc(Nc2c(C#N)cnc3cc(OCCCN4CCN(C)CC4)c(OC)cc23)c(Cl)cc1Cl   16.8%

Need normalised viability of CN(Cc1cnc2nc(N)nc(N)c2n1)c1ccc(C(=O)N[C@@H](CCC(=O)O)C(=O)O)cc1 [Methotrexate] , thanks.
93.6%

---

Tested on: CAL-120
Test: normalised response (% of control), CellTiter-Glo; higher = more viable cells (100 = DMSO, 0 = benzethonium chloride kill control)
Conditions: incubation time: 72 h
# key: entry, value: normalised response
Give the number; % is assumed, so skip it.

MOLECULE	STUDY SYSTEM	UNIT	QUANTITATIVE READOUT
CCNC(=O)CCC/C=C\C[C@@H]1[C@@H](/C=C/[C@@H](O)CCc2ccccc2)[C@H](O)C[C@@H]1O [Bimatoprost] (5.5 nM)	CAL-120	%	93.1
CN(C)C(=N)NC(=N)N [Metformin] (10 nM)	CAL-120	%	103
COc1ccc(S(=O)(=O)Nc2cccnc2Nc2ccc(O)cc2)cc1 [ABT-751] (10 nM)	CAL-120	%	101
CC(C)(C)c1nc(-c2cccc(NS(=O)(=O)c3c(F)cccc3F)c2F)c(-c2ccnc(N)n2)s1 [Dabrafenib] (250 nM)	CAL-120	%	36.6
CC(O)(CS(=O)(=O)c1ccc(F)cc1)C(=O)Nc1ccc(C#N)c(C(F)(F)F)c1 (stereo not given) [Bicalutamide] (10 nM)	CAL-120	%	100
Cc1nc(C(=O)NCC(=O)O)c(O)c2ccc(Oc3ccccc3)cc12 [FG-4592] (10 nM)	CAL-120	%	100
Nc1ccn([C@@H]2O[C@H](CO)[C@@H](O)C2(F)F)c(=O)n1 [Gemcitabine] (0.1 nM)	CAL-120	%	93.6
CO[C@@]12[C@H](COC(N)=O)C3=C(C(=O)C(C)=C(N)C3=O)N1C[C@@H]1N[C@@H]12 [Mitomycin C] (1 nM)	CAL-120	%	94.3

What is its normalised response for CAL-120? Entry: Cc1cc(Nc2nc(N[C@@H](C)c3ncc(F)cn3)ncc2Cl)[nH]n1 [AZD1480] (100 nM)
97.3

What is its normalised response for CAL-120? Entry: CO[C@@H]1[C@H](N(C)C(=O)c2ccccc2)C[C@H]2O[C@]1(C)n1c3ccccc3c3c4c(c5c6ccccc6n2c5c31)C(=O)NC4 [Midostaurin] (10 nM)
96

What is its normalised response for CAL-120? Entry: CC1(C)CCC(c2ccc(Cl)cc2)=C(CN2CCN(c3ccc(C(=O)NS(=O)(=O)c4ccc(N[C@H](CCN5CCOCC5)CSc5ccccc5)c(S(=O)(=O)C(F)(F)F)c4)cc3)CC2)C1 [Navitoclax] (1 nM)
94

What is its normalised response for CAL-120? Entry: CC(=O)[C@]1(O)Cc2c(O)c3c(c(O)c2[C@@H](O[C@H]2C[C@H](N)[C@H](O)[C@H](C)O2)C1)C(=O)c1ccccc1C3=O [Idarubicin] (0.1 nM)
105

What is its normalised response for CAL-120? Entry: CO[C@@]12[C@H](COC(N)=O)C3=C(C(=O)C(C)=C(N)C3=O)N1C[C@@H]1N[C@@H]12 [Mitomycin C] (1000 nM)
94.1

What is its normalised response for CAL-120? Entry: O=[N+]([O-])c1ccc2c(c1)S(=O)(=O)C=C2 [Stattic] (50 nM)
98.9

What is its normalised response for CAL-120? Entry: Cc1cc(Nc2nc(N[C@@H](C)c3ncc(F)cn3)ncc2Cl)[nH]n1 [AZD1480] (1 nM)
98
